// values below are reported melting point
Answer in °C, number only, no unit symbol.

Some compounds with recorded melting point:
compound	melting point (°C)
COc1ccc2c(c1)cc(C(=O)N1CCN(c3cccc(Cl)c3)CC1)n2-c1ccccc1	125
COc1cc(OC)cc(N2CCN(C(=O)c3cc4n(c3-c3ccccc3)CSC4)CC2)c1	98
COc1cc(OC)cc(N2CCN(C(=O)c3cc4cc(OC)ccc4n3-c3ccccc3)CC2)c1	165

State the recorded melting point for this entry: O=C(C1=Nc2ccc(Cl)cc2C1c1ccccc1)N1CCN(c2cccc(Cl)c2)CC1 (centres unmarked) 188

State the recorded melting point for this entry: COc1cc(OC)cc(N2CCN(C(=O)c3cc4ccccc4n3-c3ccccc3)CC2)c1 146
